Assay: Isolated perfused rat liver, single-pass perfusion with MRZ-containing Krebs-Henselit buffer, control vs MDMA-pretreated rats; perfusate analysed by HPLC
Settings: rat, isolated perfused rat liver (single-pass), ip, 3 mg/kg, AUC (0–120) MRZ Treatment, treatment group (MDMA 3 mg/kg IP 1 hour before), individual rats 1-6
metric: AUC(0-t) at 1 μg/ml (ng·h/mL)
Numbers only, in ng·h/mL.

Qu. AUC(0-t) at 1 μg/ml for CN1CCN2c3ncccc3Cc3ccccc3C2C1 (stereo not shown) [MRZ, Mirtazapine, reference compound] ?
Ans. 401
